target: human adenosine A2BR (Homo sapiens); construct: expressed in transfected cells; host or cells: CHO cells; assay: Radioligand binding at human adenosine A2B receptor vs. [3H]PSB-603; conditions: 1 µM; CHO cells; read-out: A2BR vs. [³H]PSB-603 % Inhibition ± SEM at 1 µM
Sequence (P29275 whole entry): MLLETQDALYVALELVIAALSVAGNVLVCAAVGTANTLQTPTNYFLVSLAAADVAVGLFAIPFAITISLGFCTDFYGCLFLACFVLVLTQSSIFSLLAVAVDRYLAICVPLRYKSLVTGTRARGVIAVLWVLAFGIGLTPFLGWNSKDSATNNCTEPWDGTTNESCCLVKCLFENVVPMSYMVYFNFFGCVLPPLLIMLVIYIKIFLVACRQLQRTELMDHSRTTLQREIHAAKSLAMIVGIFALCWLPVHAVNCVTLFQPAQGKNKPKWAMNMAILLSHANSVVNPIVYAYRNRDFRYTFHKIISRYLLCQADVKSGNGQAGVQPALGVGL
Parameter: inhibition at 1 µM. Scope: all listed entries.

Test system human adenosine A2BR (Homo sapiens); read-out inhibition at 1 µM; what value for "C#CCn1c(=O)c2c(nc(NCc3ccccc3Br)n2C)n(C)c1=O" ?
25%

Could you share what inhibition at 1 µM was measured for "Cn1c(NCc2ccccc2Cl)nc2c1c(=O)n(Cc1ccc(Cl)c(Cl)c1)c(=O)n2C" , tested on human adenosine A2BR (Homo sapiens)?
4%

Request: inhibition at 1 µM, test system human adenosine A2BR (Homo sapiens), entry "CCCCCCn1c(=O)c2c(nc(NCc3ccccc3Cl)n2C)n(C)c1=O"
13%

human adenosine A2BR (Homo sapiens) / inhibition at 1 µM / "CCCCCn1c(=O)c2c(nc(NCc3ccccc3Cl)n2C)n(C)c1=O" : value?
41%

More entries:
What value of inhibition at 1 µM on human adenosine A2BR (Homo sapiens) does "C#CCn1c(=O)c2c(nc(NCc3cccc(Cl)c3)n2C)n(C)c1=O" have?
26%

Param readout= inhibition at 1 µM; system= human adenosine A2BR (Homo sapiens); entry= "Cn1c(NCc2ccccc2Cl)nc2c1c(=O)n(Cc1ccccc1)c(=O)n2C" ; returns value.
9%

Report inhibition at 1 µM for "C#CCn1c(=O)c2c(nc(NCc3c(F)cccc3Cl)n2C)n(C)c1=O" tested on human adenosine A2BR (Homo sapiens).
41%

---

Target: human MAO B (Homo sapiens)
Sequence (P27338 1-520): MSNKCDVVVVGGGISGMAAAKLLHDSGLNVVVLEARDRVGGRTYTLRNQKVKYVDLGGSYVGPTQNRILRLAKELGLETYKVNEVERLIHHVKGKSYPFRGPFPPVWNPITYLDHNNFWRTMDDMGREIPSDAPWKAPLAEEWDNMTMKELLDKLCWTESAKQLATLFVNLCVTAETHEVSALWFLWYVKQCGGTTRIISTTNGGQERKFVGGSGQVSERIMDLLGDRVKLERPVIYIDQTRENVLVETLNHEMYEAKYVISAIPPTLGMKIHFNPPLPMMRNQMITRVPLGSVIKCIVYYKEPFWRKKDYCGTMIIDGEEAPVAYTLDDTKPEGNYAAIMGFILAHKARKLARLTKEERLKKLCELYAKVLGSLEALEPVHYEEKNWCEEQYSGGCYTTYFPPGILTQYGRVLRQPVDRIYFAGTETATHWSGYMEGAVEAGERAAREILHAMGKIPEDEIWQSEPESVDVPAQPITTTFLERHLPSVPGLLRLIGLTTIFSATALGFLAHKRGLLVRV
Assay: Human MAO B inhibition, fluorometric method
Type: biochemical
Details: mean of two independent experiments, read-out: % of hMAO B Inhibition at 1 µM
Protocol: The compounds were tested twice in duplicates at a concentration of 1 μM by fluorometric method as previously described. Paratyramine (200 μM) was used as a substrate for the enzyme. Safinamide (1 μM; reversible) and rasagiline (1 μM; irreversible) were used as reference inhibitors.
Output 1 for inhibition at 1 µM not less than 10%; output 0 otherwise.

// known answers, use as guide
Could you please find out whether CCCn1c(=O)c2c(nc(NCc3ccccc3F)n2C)n(C)c1=O [compound 13] has inhibition at 1 µM that meets 10% or exceeds it?
1

Given C#CCn1c(=O)c2c(nc(NCc3ccccc3Cl)n2C)n(C)c1=O [compound 19] , state whether its inhibition at 1 µM is at least 10%.
0

# bool: inhibition at 1 µM of CCCn1c(=O)c2c(nc(NCc3ccccc3Cl)n2C)n(C)c1=O [compound 5] >= 10%
0

Determine whether measured inhibition at 1 µM meets or exceeds 10% for C#CCn1c(=O)c2c(nc(NCc3cccc(Cl)c3)n2C)n(C)c1=O [compound 23]
0

inhibition at 1 µM >= 10% for CCCn1c(=O)c2c(nc(NCc3ccccc3Br)n2C)n(C)c1=O [compound 12] ?
0

In plain terms: is recorded inhibition at 1 µM at least 10% for C#CCn1c(=O)c2c(nc(NCc3ccccc3F)n2C)n(C)c1=O [compound 21] ?
0

# check: inhibition at 1 µM of C#CCn1c(=O)c2c(nc(NCc3cccc(OC)c3)n2C)n(C)c1=O [compound 25] is greater than or equal to 10%
1

Record C#CCn1c(=O)c2c(nc(NCc3ccc(OC)c(OC)c3)n2C)n(C)c1=O [compound 26] ; criterion: inhibition at 1 µM no lower than 10%. Met?
0

Decide: is the reported value of inhibition at 1 µM for CCCn1c(=O)c2c(nc(NCc3cccc(OC)c3)n2C)n(C)c1=O [compound 17] equal to or greater than 10%?
0

With those in mind, consider the next compound.
inhibition at 1 µM >= 10% for C#CCn1c(=O)c2c(nc(NCc3ccccc3Br)n2C)n(C)c1=O [compound 20] ?
1

Data origin, for the record: paper PMC10531311
